The measured values listed here are drawn from the supplement of paper PMC9694430.

test system: LOC_OS01G13800-cb001; test: thermal shift delta Tm vs DMSO control; higher = stronger stabilization (binding); conditions: 12.5 µM; protein concentration 2 µM;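 further: purified Escherichia coli-expressed rice kinase domain construct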
thermal shift delta Tm for assorted compounds
Just the number please, in °C, no unit attached.

Examples with their reported thermal shift delta Tm follow.
                                   compound               parameter  measurement
0  CC(C)(C)c1nc(-c2ccc(NC(=O)Nc3cccc(C(F)(F)F)c3)c3ccccc23)c2c(N)nccn12 [kira6]  thermal shift delta Tm         1.09
1  CC(C)S(=O)(=O)c1ccc2nccc(Nc3ccc4scnc4c3)c2c1  thermal shift delta Tm         0.78

Please turn your attention to the following entry.
Inquiry: What does the data say about its thermal shift delta Tm? Entry: O=C(NC(NC(=S)Nc1ccc(F)c([N+](=O)[O-])c1)C(Cl)(Cl)Cl)C(c1ccccc1)c1ccccc1 (stereo not drawn)
Reply text: 2.31
